- protocol.summary: Stability (mean % remaining) in human plasma after incubation at 37 °C for 24h
- Format: ADME, cell-free
- conditions: read-out: %R
property: remaining at 24 h (%)

(A) CC(Cc1ccccc1)C(=O)SCCCCCCC(=O)Nc1nc(-c2ccccc2)cs1 (configuration not stated)
(B) CC(C)C(=O)SCCCCCCC(=O)Nc1nc(-c2ccccc2)cs1
Which numeric remaining at 24 h is bigger, that of A or that of B ? # answer = label of selected item
A
(A: 100%, B: 49%)

---

- Test system: MDA-MB-231
- protocol.summary: Inhibition of MDA-MB-231 cell proliferation (mean of two experiments)
- Type: functional, cell-based, Homo sapiens
- conditions: Homo sapiens, MDA-MB-231
property: EC50 (µM)

Worked examples, 2 compounds total:
| compound | EC50 (µM) |
| --- | --- |
| CC(C)C(=O)SCCCCCCC(=O)Nc1nc(-c2ccccc2)cs1 | 4.4 |
| C[C@@H](Cc1ccccc1)C(=O)SCCCCCCC(=O)Nc1nc(-c2ccccc2)cs1 | 4 |

(1) C[C@H](Cc1ccccc1)C(=O)SCCCCCCC(=O)Nc1nc(-c2ccccc2)cs1
(2) CC(Cc1ccccc1)C(=O)SCCCCCCC(=O)Nc1nc(-c2ccccc2)cs1 (stereo not drawn)
Looking only at measured EC50, which entry is lower, 1 or 2 ? # respond with the chosen item's label
2
